meta.source: PubChem BioAssay AID1159580

- Assay details: chemical genetic growth profiling, strain panel (AID 1159580);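 also: tested at 20 µM; growth read once vehicle control cultures reached saturation at 30 °C; lower values mean less growth of the strain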
- Conditions used: S. cerevisiae deletion strains, growth OD, locus YJL092W, strain hpr5
Hit rate of the full screen: of about 5,500 compounds, about 2,000 (36%) were called active. Inconclusive results (about 18%) are left out. Rule as the data show it: active = normalized growth mostly below about 0.91 (no sharp cut-off); inconclusive = no clear call, values can overlap the other calls; inactive = mostly above about 0.92. This is one part of the list.
Allowed answers: True (active), False (inactive)

Each compound tested received a call. Report the one for O=c1c2ccccc2oc2ccccc12 . False

Each compound tested received a call. Report the one for CC(=O)CC(c1ccccc1)c1c(O)c2ccccc2oc1=O (stereo unspecified) . False

Each compound tested received a call. Report the one for COc1cccc2c1cc([N+](=O)[O-])c1c(C(=O)O)cc3c(c12)OCO3 . False

---
Each compound tested received a call. Report the one for CC(C)c1ccc2c(c1O)CC[C@H]1C3=C(CC[C@]21C)C(=O)OC3 . False

Each compound tested received a call. Report the one for S=c1ccss1 . False

Each compound tested received a call. Report the one for CC(=O)O.CC(=O)O.[Cd] . True

Each compound tested received a call. Report the one for CC(=O)O[C@@H]1CC2C(C)(C)C(=O)CC[C@]2(C)C2CC[C@@]3(C)[C@H](c4ccoc4)OC(=O)C4OC43[C@@]21C (stereo partly specified) . False
